Tested on: hepatoma HepG2 cell line
Test: MTT cytotoxicity assay, HepG2
Type: cell-based
Conditions: 48 h, 0.1 to 100 μM
readout_kind: IC50 (µM)
Give your result in µM as a bare value.

### Prompt Return the recorded IC50 value; entry: Clc1cccc(Cl)c1Cn1cnc2c(N3CCC(N4CCCCC4)CC3)ncnc21 [Compound 3d]
### Response 57.6

### Prompt Return the recorded IC50 value; entry: Clc1nc(N2CCC(N3CCCCC3)CC2)c2ncn(Cc3c(Cl)cccc3Cl)c2n1 [Compound 3h]
### Response 33.8

---

Test: MTT cytotoxicity assay, SH-SY5Y
Assay type: cell-based
Conditions: human, SH-SY5Y neuroblastoma cells, 0.1 to 100 μM
readout_kind: IC50 at 48 h

### Prompt Return the recorded IC50 at 48 h value; entry: Clc1nc(N2CCC(N3CCCCC3)CC2)c2ncn(Cc3c(Cl)cccc3Cl)c2n1 [Compound 3h]
### Response > 30 µM

All figures here come from paper PMC9145483.
